These data points were gathered from ChEMBL document CHEMBL1201862.

# System: SNB-78
# protocol notes: NCI tumour cell line growth inhibition, 48 h
The source made the active and inactive calls. Cut-off read from the data, not from the text of the source: active = GI50 up to about 1.1 µM and inactive = higher.
Result category, one only: y for active, n for inactive

Observe how each entry below is paired with its result.
• C/C=C(\C)C(=O)OC1C2C(C)=CC(=O)C(O)C2(C)C2C3(O)OCC24C1OC(=O)C(OC(C)=O)C4C(C)C3O (stereo not given) = y
• COc1ccc(C(=O)C(C(=O)C(=O)NC2C3CC4CC(C3)CC2C4)c2ccc(OC)cc2)cc1 (stereo not given) = n
• O=C1C(Cl)C(c2ccccc2Cl)N1n1cnc2ccccc2c1=O (stereo not given) = n
• S=c1nc(N2CCCCC2)ss1 = n

Attention now turns to another entry.
Asked: What classification did CC(C)[C@H](CCl)NC(=O)c1cccc(C(=O)N[C@H](CCl)C(C)C)n1 (stereo in doubt) end up with in this test?
Given back: n

* * *

# System: M14
# protocol notes: NCI tumour cell line growth inhibition, 48 h
Activity calls are given as the source filed them. Rule as the data show it: active = GI50 up to about 1.1 µM and inactive = higher.
Please state which outcome applies, choosing from active, inactive

Example cases with answers are listed next.
• Cc1c2cc[n+](C)cc2c(C)c2c1[nH]c1ccc(OC(C)(C)C)cc12 = inactive
• CN(C)c1cccc(/C=C(\C#N)c2ccccc2)c1 = active

Asked: Lab log entry: `CCCCCCCCCCCCOCCCOP(=O)([O-])OCC[N+](C)(C)C` — outcome as called in the assay?
Given back: inactive

Asked: Any idea what this test logged for CCOC(=O)C(NC(C)=O)(Nc1ccc(S(N)(=O)=O)cc1)C(F)(F)F (stereo not given) ?
Given back: inactive

Asked: Identify the outcome logged in this assay for the compound shown: NC(=O)NC(=O)C1CCCCC1C(=O)O (stereo not given)
Given back: inactive

Asked: Check the results log: what was the call for CCOP(=O)(OCC)C(Nc1ccc(C(=O)O)cc1)c1ccc(C(Nc2ccc(C(=O)O)cc2)P(=O)(OCC)OCC)cc1 (stereo not given) ?
Given back: inactive

Asked: Hello, I am checking results. What call was entered for CC(=O)[C@H]1CC[C@@H]2[C@]1(C)CC=C1[C@]23C=C[C@]2(C[C@@H](O)CC[C@]12C)C(C(=O)O)C3C(=O)O (stereo not given in full) ?
Given back: inactive

Asked: Outcome logged for `Cc1cc(N(CCC#N)CCC#N)ccc1/C=C(\NC(=O)/C=C/c1ccccc1)C(=O)Nc1ccccc1Cl` in this assay:
Given back: inactive

Asked: Please share the test call associated with `O=C1CN=C(C[N+](=O)[O-])c2ccccc21` .
Given back: inactive

Asked: Please let me know the test result on file for `NC(=S)NNC(=O)CCC(=O)Nc1ccc(Cl)cc1Cl` .
Given back: inactive

* * *

# Test system: UACC-257
# protocol notes: NCI tumour cell line growth inhibition, 48 h
The source made the active and inactive calls. Cut-off read from the data, not from the text of the source: active = GI50 up to about 1.1 µM and inactive = higher.
The reply should be one of these categories: active, inactive

Solved cases (4 shown):
- O=C1O/C(=C/c2ccccc2)C(c2ccccc2)=C1O: inactive
- Oc1ccc(/C=N/c2ccccc2O)cc1: inactive
- Cc1nnc2nc(-c3ccc(Cl)cc3Cl)cc(-c3ccc(Cl)cc3)n12: inactive
- Cc1ccc(C(=O)C2C=C(c3ccc(C)cc3)SC3C=CCC32)cc1 (stereo unspecified): inactive

Asked: What classification did `CCCCCCc1cc2cc(-c3csc(-c4ccc(OC)cc4)n3)c(=O)oc2cc1O` end up with in this test?
Given back: inactive

Asked: What did the test return for O=S(=O)(N/N=C1\CC2CCC1C2)c1ccccc1 (stereo unspecified) ?
Given back: inactive

Asked: Outcome logged for CC1(C)CCC2=C(O1)c1ccccc1C(=O)C2=O [LAPACHONE] in this assay:
Given back: active

Asked: Can you look up the reported call for C=C(Cl)/C(=C\Br)CCC(Cl)C(C)C.C=C(Cl)/C(=C\Cl)CCC(Cl)C(C)C (stereo unspecified) for me?
Given back: inactive

Asked: How did this test come out for `Sc1ncnc2c1ncn2Cc1ccco1` ?
Given back: inactive

Asked: // outcome(item) with item = `CSC1(SC2=NCCN2)SC2(NCCN2)S1`
Given back: inactive

Asked: Record request — test call for CC(C)(CO)N1C(=O)c2ccccc2C1(O)c1ccc(Cl)cc1 (stereo unspecified)
Given back: inactive

* * *

# Tested on: UACC-62
# protocol notes: NCI tumour cell line growth inhibition, 48 h
Activity calls are given as the source filed them. Rule as the data show it: active = GI50 up to about 1.1 µM and inactive = higher.
assay readout: GI50

Examples with their reported GI50 follow.
* NC(=O)NC(=O)C1CCCCC1C(=O)O (stereo not drawn) | > 100 µM (inactive)
* CN(C)Cc1ccc(C(C)(C)C)cc1-c1cc(C(C)(C)C)ccc1CN(C)C | > 100 µM (inactive)
* CC1(C)C=CC(=O)C(O)C(C)(C)C1=O (stereo not drawn) | 52.8 µM (inactive)
* Cc1ccccc1C1=[N+]([O-])c2ccc(Cl)cc2C1=O | 12.4 µM (inactive)
* CN1c2ccccc2SC2C(c3ccccc3)=NOC21 (stereo not drawn) | 35.1 µM (inactive)
* CON(C)C(=O)C(Cc1ccccc1)NC(=O)OC(C)(C)C (stereo not drawn) | > 100 µM (inactive)

Parameter requested: GI50. Apply to each item below.
1. CC1=C(C(=O)CC(=O)C(=O)Nc2cccc(Cl)c2C)Sc2ccccc2N1
2. CCn1c(=O)c(C(=O)O)c(Cl)c2cc3c(cc21)OCO3
3. Cc1ccc(-c2cc(-c3ccc(Cl)cc3)nc(/N=C3\C(=O)N(CN4CCOCC4)c4ccccc43)n2)cc1
4. C=C(Cl)/C(=C\Br)CCC(Cl)C(C)C.C=C(Cl)/C(=C\Cl)CCC(Cl)C(C)C (stereo not drawn)
5. O=C1CC2(CCC(O)(c3cccc4ccccc34)C(C(=O)c3cccc4ccccc34)C2)C(=O)c2ccccc2N1 (stereo not drawn)
6. CCOC(=O)c1c(-c2cccc(Cl)c2)c(C(=O)OC)c(C)c2sc(C=O)nc12
7. C/C(=N\n1c(Cc2ccccc2)n[nH]c1=O)c1ccccc1

Given back:
1: > 100 µM (inactive); 2: > 100 µM (inactive); 3: 20 µM (inactive); 4: 12.7 µM (inactive); 5: 81.5 µM (inactive); 6: 15.8 µM (inactive); 7: > 100 µM (inactive)

* * *

Task for the reader: assign each of the following compounds its reported GI50.
# System: IGROV-1
# protocol notes: NCI tumour cell line growth inhibition, 48 h
Calls of active or inactive are those of the source. Cut-off read from the data, not from the text of the source: active = GI50 up to about 1.1 µM and inactive = higher.

• COc1cc(C2C3=C(N=C4SC(C(C)=O)=C(C)N42)c2ccccc2CC3)cc(OC)c1OC (stereo unspecified) = 52 µM (inactive)
• CCOP(=O)(OCC)C(Nc1ccc(C(=O)O)cc1)c1ccc(C(Nc2ccc(C(=O)O)cc2)P(=O)(OCC)OCC)cc1 (stereo unspecified) = > 100 µM (inactive)
• Nc1nc(CCc2n[nH]c(N)n2)n[nH]1 = > 100 µM (inactive)

Below are some compounds; for each one, tell me its GI50.
1. O=C(CCCN1CCC(O)(c2ccc(Cl)cc2)CC1)c1ccc(F)cc1 [HALOPERIDOL]
2. O=S(=O)(N/N=C1\CC2CCC1C2)c1ccccc1 (stereo unspecified)

Given back:
1. 57.3 µM (inactive)
2. > 100 µM (inactive)

Would you mind giving GI50 for every compound in the list below?
1. C/C(=N\Nc1ccccc1Br)c1cccc(/C(C)=N/Nc2ccccc2Br)n1
2. O=C(Cc1ccccc1)Nc1nc2ccc(Cl)cc2c2nc(-c3ccco3)nn12

Given back:
1. 80.7 µM (inactive)
2. > 21.6 µM (inactive)

// for each compound in input: emit GI50
1. Cc1cc(C)n(-c2nc3ccccc3c(=O)n2-c2ccccc2)n1
2. OC1(c2ccccc2)CCCCCCCCC(O)(c2ccccc2)CCCCCCCC1 (stereo unspecified)
3. C/C(Cl)=N\OC(=O)Nc1ccc(C)cc1
4. C/C(=N\Nc1nc2ccccc2s1)c1cc2ccccc2cn1
5. CCOC(=O)C(C/C=C/CO)N(C)C(=O)OC(C)(C)C (stereo unspecified)
6. C/C(=C\CO)CC/C=C(\C)CNc1ccc([N+](=O)[O-])cc1
7. CCN(CC)CCCNc1ncc(C)c2c1c1ccc3c(O)cccc3c1n2C

Given back:
1: > 100 µM (inactive); 2: > 100 µM (inactive); 3: 16.7 µM (inactive); 4: 1.61 µM (inactive); 5: > 100 µM (inactive); 6: 28.8 µM (inactive); 7: 1.96 µM (inactive)

Each of the following entries comes with a recorded value; kindly state GI50 for each.
1. O=C(Nc1ccc(S(=O)(=O)Nc2ncccn2)cc1)c1c2ccccc2nc2ccccc12
2. C=C[C@@](C)(/C=C/c1ccc(O)cc1)CCC=C(C)C [BAKUCHIOL]
3. C/C=C/C=C\C=C/C(O)C(C)C(CCC(C)C1OC(=O)C=CC1C)OP(=O)(O)O (stereo unspecified)
4. COC(=O)CCC1(CCC(=O)OC)CCCCCCC(CCC(=O)OC)(CCC(=O)OC)C(=O)C1=O
5. C=C(Cl)/C(=C\Br)CCC(Cl)C(C)C.C=C(Cl)/C(=C\Cl)CCC(Cl)C(C)C (stereo unspecified)
6. O=S(=O)(O)c1ccc2cc(/N=N\c3cc(S(=O)(=O)O)c4cccnc4c3O)ccc2c1
7. O=[N+]([O-])c1ccc(N/N=C2/CC3=C2CCCCCCCCCC3)c([N+](=O)[O-])c1

Given back:
["> 100 µM (inactive)", "15.8 µM (inactive)", "0.275 µM (active)", "> 100 µM (inactive)", "14.7 µM (inactive)", "> 100 µM (inactive)", "> 100 µM (inactive)"]
